For each entry below, report its GI50 value.
- Tested on: NCI-H460
- Experiment: Cytotoxicity against human NCI-H460 cells after 48 hrs by SRB assay
- Assay type: functional
- Conditions used: NCI-H460, 48 h
Note: unit nM is implicit; provide only the numeric part.

input: I have this compound here, `COc1ccc(Cn2cc(C=C3C(=O)N(C)C(=O)N(C)C3=O)c3ccccc32)cc1` , and I need its recorded GI50.
output: 810

input: I have this compound here, `CN1C(=O)C(=Cc2cn(Cc3ccc(F)cc3)c3ccccc23)C(=O)N(C)C1=O` , and I need its recorded GI50.
output: 370

input: I have this compound here, `CN1C(=O)C(=Cc2cn(Cc3ccc(Cl)cc3)c3ccccc23)C(=O)N(C)C1=O` , and I need its recorded GI50.
output: 400

input: I have this compound here, `Cc1ccc(Cn2cc(C=C3C(=O)N(C)C(=O)N(C)C3=O)c3ccccc32)cc1` , and I need its recorded GI50.
output: 910
